# experimental_target: T1, human AXL with a mouse ECD (Mus musculus, UniProt Q00993, A791T/A867T/C878S/D603E/D853E/E609A/F637Y/G606S/G869S/H824Y/L452V/L825P/L872Q/P881A/R785Q/R828P/S823G/S856P/S873P/T871A/V766A)
# T1 construct: aa 1-441); expressed in transfected cells; host or cells: HEK293T
# T1 sequence (Q00993 19-888 with the stated changes): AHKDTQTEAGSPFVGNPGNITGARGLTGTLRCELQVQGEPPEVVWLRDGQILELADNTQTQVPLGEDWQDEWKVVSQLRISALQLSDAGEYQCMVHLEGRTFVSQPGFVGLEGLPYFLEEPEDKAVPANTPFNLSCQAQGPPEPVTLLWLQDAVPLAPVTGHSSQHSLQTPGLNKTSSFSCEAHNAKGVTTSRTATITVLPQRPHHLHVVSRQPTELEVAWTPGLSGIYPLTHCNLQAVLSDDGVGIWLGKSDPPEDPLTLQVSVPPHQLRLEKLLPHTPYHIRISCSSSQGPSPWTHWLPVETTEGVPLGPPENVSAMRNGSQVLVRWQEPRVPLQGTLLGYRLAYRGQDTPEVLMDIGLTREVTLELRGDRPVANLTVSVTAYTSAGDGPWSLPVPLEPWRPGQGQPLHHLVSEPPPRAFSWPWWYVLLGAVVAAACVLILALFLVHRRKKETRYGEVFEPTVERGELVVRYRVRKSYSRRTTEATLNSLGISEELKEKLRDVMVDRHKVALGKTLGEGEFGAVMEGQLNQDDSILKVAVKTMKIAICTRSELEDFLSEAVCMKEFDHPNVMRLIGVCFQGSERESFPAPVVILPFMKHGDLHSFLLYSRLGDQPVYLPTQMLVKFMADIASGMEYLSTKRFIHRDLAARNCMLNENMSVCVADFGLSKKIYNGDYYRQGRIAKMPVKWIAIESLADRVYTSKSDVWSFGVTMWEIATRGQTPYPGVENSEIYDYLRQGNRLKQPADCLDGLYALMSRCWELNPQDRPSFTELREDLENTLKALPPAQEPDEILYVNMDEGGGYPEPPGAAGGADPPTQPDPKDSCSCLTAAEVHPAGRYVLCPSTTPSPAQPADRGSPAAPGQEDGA
# assay_info: Flow cytometry binding to HEK293T cells transfected with human AXL with mouse ECD
# condition_notes: 0.0024-10 μg/mL
observable: binding to AXL with a mouse ECD

# example entries with known answers
IgG1-AXL-183-N52Q: point mutant of IgG1-AXL-183, VH SEQ ID NO:17, VL SEQ ID NO:18 (antibody, V domains shown, homo sapiens) VH: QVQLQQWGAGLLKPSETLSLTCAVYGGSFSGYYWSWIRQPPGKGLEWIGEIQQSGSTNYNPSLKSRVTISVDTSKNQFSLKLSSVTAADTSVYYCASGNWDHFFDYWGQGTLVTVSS VL: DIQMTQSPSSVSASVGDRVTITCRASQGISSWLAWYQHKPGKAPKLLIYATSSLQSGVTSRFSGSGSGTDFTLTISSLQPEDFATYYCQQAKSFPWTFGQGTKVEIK = low
IgG1-AXL-183: human IgG1,κ anti-AXL antibody, VH SEQ ID NO:16, VL SEQ ID NO:18; FN1 domain binding (antibody, V domains shown, homo sapiens) VH: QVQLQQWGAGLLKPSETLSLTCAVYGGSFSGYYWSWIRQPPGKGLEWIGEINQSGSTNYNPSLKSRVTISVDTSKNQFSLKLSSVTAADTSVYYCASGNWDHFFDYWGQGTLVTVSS VL: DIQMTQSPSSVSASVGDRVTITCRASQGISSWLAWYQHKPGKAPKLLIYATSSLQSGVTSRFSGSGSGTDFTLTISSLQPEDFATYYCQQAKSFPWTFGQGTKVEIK = low
IgG1-AXL-726-M101L: point mutant of IgG1-AXL-726, VH SEQ ID NO:32, VL SEQ ID NO:33 (antibody, V domains shown, homo sapiens) VH: QVQLQQWGAGLLKPSETLSLTCAIDGGSFSGYYWSWIRQPPGKGLEWIGEISHSGRTNYNPSLKSRVTISIDTSKNQFSLKLSSVAAADTAVYYCARFITLIRGAIITHFDYWGQGALVTVSS VL: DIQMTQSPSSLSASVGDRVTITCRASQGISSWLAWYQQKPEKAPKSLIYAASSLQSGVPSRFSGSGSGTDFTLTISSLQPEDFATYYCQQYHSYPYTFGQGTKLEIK = not detectable
IgG1-AXL-733: human IgG1,κ anti-AXL antibody, VH SEQ ID NO:34, VL SEQ ID NO:35; FN1 domain binding (antibody, V domains shown, homo sapiens) VH: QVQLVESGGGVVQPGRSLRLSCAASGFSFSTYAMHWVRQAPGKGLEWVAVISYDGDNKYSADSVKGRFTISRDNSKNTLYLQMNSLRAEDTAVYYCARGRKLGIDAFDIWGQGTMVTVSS VL: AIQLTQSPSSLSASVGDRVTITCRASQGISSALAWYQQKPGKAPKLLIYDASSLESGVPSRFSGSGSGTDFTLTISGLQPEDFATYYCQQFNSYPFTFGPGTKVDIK = low

We next turn to a different molecule, shown below.
Given IgG1-AXL-726: human IgG1,κ anti-AXL antibody, VH SEQ ID NO:31, VL SEQ ID NO:33; FN2 domain binding (antibody, V domains shown, homo sapiens) VH: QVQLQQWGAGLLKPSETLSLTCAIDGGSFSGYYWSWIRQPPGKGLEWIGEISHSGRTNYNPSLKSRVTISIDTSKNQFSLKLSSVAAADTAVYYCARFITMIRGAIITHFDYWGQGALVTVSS VL: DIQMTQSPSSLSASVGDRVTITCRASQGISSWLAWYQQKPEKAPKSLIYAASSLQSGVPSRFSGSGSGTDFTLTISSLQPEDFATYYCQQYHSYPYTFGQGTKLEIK , state its recorded binding to AXL with a mouse ECD.
not detectable
